Entry source: the supplement of paper PMC12282887

# Tested on: E. coli BW25113 soxSp lux reporter
# method_notes: promoter activity interaction Z-score (Lux/OD deviation from empty-vector control); higher = stronger promoter induction by the compound
# reported_conditions: 0.25 µg/ml; genetic background: wild type
Attribute: promoter activity interaction Z-score
measured_property: promoter activity interaction Z-score

> print(dat)
                           substance.smiles   number
1  CO[C@@]12[C@H](COC(N)=O)C3=C(C(=O)C(C)=C(N)C3=O)N1C[C@@H]1N[C@@H]12    0.185
2  C/C(=C\C(=O)OCCCCCCCCC(=O)O)C[C@@H]1OC[C@H](C[C@@H]2O[C@H]2[C@@H](C)[C@H](C)O)[C@@H](O)[C@H]1O  -0.0625
3  CN(C)c1ccc(O)c2c1C[C@H]1C[C@H]3[C@H](N(C)C)C(O)=C(C(N)=O)C(=O)[C@@]3(O)C(O)=C1C2=O    0.499
4  CC1(C)S[C@@H]2[C@H](NC(=O)[C@H](N)c3ccc(O)cc3)C(=O)N2[C@H]1C(=O)O    0.174
